tested on: UACC-62; experiment: NCI tumour cell line growth inhibition, 48 h
The source made the active and inactive calls. Rule as the data show it: active = GI50 up to about 1.1 µM and inactive = higher.
Log the outcome using a class from active, inactive

Inquiry: What outcome does the record of this test show for O=C1Cc2c([nH]c3c(Cl)cccc23)-c2ccccc2N1 ?
Reply text: inactive

Inquiry: What outcome does the record of this test show for O=[N+]([O-])c1ccc2nc(=S)[nH]n2c1 ?
Reply text: inactive

Inquiry: What outcome does the record of this test show for COc1ccc(C2c3cc4c(cc3OC(N3CCOCC3)C2C)OCO4)cc1 (stereo not given) ?
Reply text: inactive

Inquiry: What outcome does the record of this test show for COc1ccc(/C=C2\C(=O)N(NC(C)=O)c3ccccc32)cc1 ?
Reply text: inactive

Inquiry: What outcome does the record of this test show for CCN(C(=O)/C=C/c1ccco1)c1ccccc1 ?
Reply text: inactive

Inquiry: What outcome does the record of this test show for Cc1cc(N(C)C)ccc1/N=N/c1ccc2ncccc2c1 ?
Reply text: inactive

Inquiry: What outcome does the record of this test show for O=C(NCCCCNCCCNC(=O)c1ccccc1)c1ccccc1 ?
Reply text: inactive

Inquiry: What outcome does the record of this test show for CCCNC1=C2CC(C)CC(OC)[C@@H](O)[C@H](C)/C=C(\C)C(OC(N)=O)C(OC)/C=C\C=C(/C)C(=O)NC(=CC1=O)C2=O (stereo not given in full) ?
Reply text: active

Inquiry: What outcome does the record of this test show for O=S(=O)(O)c1cc(O)c2c(O)c(/N=N/c3cccc4ccccc34)c(S(=O)(=O)O)cc2c1 ?
Reply text: inactive

Inquiry: What outcome does the record of this test show for CCOC(=O)C1C(c2ccc(OC)cc2)c2c(nn(-c3ccccc3)c2O)CC1(C)O (stereo not given) ?
Reply text: inactive

---

system: Malme-3M; experiment: NCI tumour cell line growth inhibition, 48 h
Calls of active or inactive are those of the source. Cut-off read from the data, not from the text of the source: active = GI50 up to about 1.1 µM and inactive = higher.
Log the outcome using a class from class 1 for active, class 0 for inactive

Cc1cc(NC(=O)C(=O)Cc2cnc3ccccc3n2)c(S(=O)(=O)O)cc1Cl: class 0
COC1C(O)C(O[C@H]2CC[C@@]3(C)C(CC[C@@H]4[C@@H]3CC[C@]3(C)[C@@H](C(C)OC5OC(CO)C(O)C(O)C5O)CC[C@]43O)C2)OC(C)C1OC1OC(CO)C(O)C(O)C1O (stereo partly specified): class 0
Cn1c(/C=C/CO)c(CO)c2c1C(=O)C=C(N1CC1)C2=O: class 1
CSc1ccc(-c2cn3ccsc3n2)c(O)c1: class 0
C[C@H]1C(=O)C2=C[C@H]1CCC(=O)[C@]1(C)CCCC(C)(C)[C@H]1C[C@H]2O: class 0

Inquiry: What outcome does the record of this test show for O=C1c2ccccc2C(=O)N1CCCOCc1cnc(O)nc1O ?
Reply text: class 0

Inquiry: What outcome does the record of this test show for CCOC(=O)/C(C(=O)c1ccc[nH]1)=C1/CCCN1C ?
Reply text: class 0

Inquiry: What outcome does the record of this test show for N#C[BH2-][n+]1ccc(C(=O)NNCc2cccc(C(F)(F)F)c2)cc1 ?
Reply text: class 0

---

test system: MDA-MB-435; experiment: NCI tumour cell line growth inhibition, 48 h
Activity calls are given as the source filed them. Rule as the data show it: active = GI50 up to about 1.1 µM and inactive = higher.
Experimental readout: GI50

These recorded examples may help you get a feel for the data.
CC1(C)CCN2C(=O)C34CCCC3CC21S4 (stereo unspecified): > 100 µM (inactive)
CCOC(=O)C1=CC(C)(C(=O)OCC)Nc2c(nc(SC)n(C)c2=O)N1 (stereo unspecified): > 10 µM (inactive)
O=C(O)C(F)(F)C(F)(F)C(F)(F)C(F)(F)C(=O)O: > 100 µM (inactive)

Inquiry: Record lookup: for MDA-MB-435, what GI50 belongs to CN(C)c1ccc(/C=N/N=C2\C(=O)Nc3c(Cl)cc(Cl)cc32)cc1 ?
Reply text: 22.5 µM (inactive)

Inquiry: Record lookup: for MDA-MB-435, what GI50 belongs to CC(C)(C)OC(=O)NC1CCCC1C(=O)C1=CCCC1 (stereo unspecified) ?
Reply text: 90.6 µM (inactive)

Inquiry: Record lookup: for MDA-MB-435, what GI50 belongs to Cc1ccc(CC2(OCCN(C)C)CCC(C(C)(C)C)CC2)cc1 (stereo unspecified) ?
Reply text: 2.37 µM (inactive)

---

system: Hs-578T; assay: NCI tumour cell line growth inhibition, 48 h
Activity calls are given as the source filed them. Rule as the data show it: active = GI50 up to about 1.1 µM and inactive = higher.
Log the outcome using a class from 1 (active), -1 (inactive)

CO/N=C\c1cc(O)c(O)c(/C=N/OC)c1: -1

Inquiry: What outcome does the record of this test show for Cc1c(C)n(-c2ccccc2)c2nc([S+](C)[O-])nc([S+](C)[O-])c12 (centres undefined) ?
Reply text: -1

Inquiry: What outcome does the record of this test show for Cc1ccc(/C=C2\N=C(N3CCOCC3)NC2=O)cc1 ?
Reply text: -1

Inquiry: What outcome does the record of this test show for O=C1c2ccccc2C(=O)c2c(NC(=O)C(Cl)CCl)cccc21 (centres undefined) ?
Reply text: -1

Inquiry: What outcome does the record of this test show for Cn1c(N)c(Cc2ccc(Cl)cc2)c(=O)[nH]c1=O ?
Reply text: -1

Inquiry: What outcome does the record of this test show for CCCNC1=C2CC(C)CC(OC)[C@@H](O)[C@H](C)/C=C(\C)C(OC(N)=O)C(OC)/C=C\C=C(/C)C(=O)NC(=CC1=O)C2=O (some centres undefined) ?
Reply text: -1

Inquiry: What outcome does the record of this test show for COc1ccc(-c2cc(-c3ccc(Nc4ccnc5cc(Cl)ccc45)cc3)[nH]c(=O)c2C#N)cc1 ?
Reply text: -1

Inquiry: What outcome does the record of this test show for N#CC(c1ccccc1)(c1ccccc1)[C@@H](c1ccccc1)[C@H](Cc1ccccc1)NS(=O)(=O)c1ccccc1 ?
Reply text: -1

Inquiry: What outcome does the record of this test show for O=C1C=CC2(C=C1)O[C@H](Cc1ccccc1)[C@@H](Cc1ccccc1)O2 ?
Reply text: 1

---

system: OVCAR-4; test: NCI tumour cell line growth inhibition, 48 h
Activity calls are given as the source filed them. Rule as the data show it: active = GI50 up to about 1.1 µM and inactive = higher.
Log the outcome using a class from T for active, F for inactive

Cn1c2ccccc2c(=NNc2ccc(S(N)(=O)=O)cc2)c2ccccc21: F
O=C1c2ccccc2C(=O)N1CCCOCc1cnc(O)nc1O: F
Cc1cc(N(CCC#N)CCC#N)ccc1/C=C1/N=C(c2ccccc2)N(N)C1=O: F
CC(N)C(C)c1ccccc1 (centres undefined): F
O=C(/C=C/c1cccc(Oc2ccccc2)c1)NCc1ccc(C(=O)NCCc2ccccc2)cc1: F
FC(F)(F)C1(C(F)(F)F)OC(Cl)(Cl)C(Cl)(Cl)O1: F

Inquiry: What outcome does the record of this test show for O=C1C=CC2(C=C1)O[C@H](Cc1ccccc1)[C@@H](Cc1ccccc1)O2 ?
Reply text: T

Inquiry: What outcome does the record of this test show for COc1ccc(-c2onc(-c3ccc([N+](=O)[O-])cc3)c2C2=NCCCN2)cc1 ?
Reply text: F

Inquiry: What outcome does the record of this test show for COC1C(O)C(O[C@H]2CC[C@@]3(C)C(CC[C@@H]4[C@@H]3CC[C@]3(C)[C@@H](C(C)OC5OC(CO)C(O)C(O)C5O)CC[C@]43O)C2)OC(C)C1OC1OC(CO)C(O)C(O)C1O (some centres undefined) ?
Reply text: F

---

tested on: TK-10; test: NCI tumour cell line growth inhibition, 48 h
Active and inactive are the calls of the source. Rule as the data show it: active = GI50 up to about 1.1 µM and inactive = higher.
Experimental readout: GI50

These recorded examples may help you get a feel for the data.
O=C1C(=O)N(c2ccc(Cl)cc2Cl)C(=O)C(=O)C1c1nc2ccccc2o1: > 100 µM (inactive)
Cc1cc(N(CCC#N)CCC#N)ccc1/C=C1/N=C(c2ccccc2)N(N)C1=O: 74.1 µM (inactive)
O=S(=O)(O)c1cc(O)c2c(O)c(/N=N/c3cccc4ccccc34)c(S(=O)(=O)O)cc2c1: > 100 µM (inactive)

Inquiry: Would you mind telling me what GI50 value was observed for O=C(O)c1nnsc1-c1csnn1 ?
Reply text: 74.8 µM (inactive)

Inquiry: Would you mind telling me what GI50 value was observed for CCCCCCCCCCCCCCCCNc1ccn(C2CC(OP(=O)(O)OCC3OC(n4cc(CC)c(=O)[nH]c4=O)CC3O)C(CO)O2)c(=O)n1 (stereo not given) ?
Reply text: 77.3 µM (inactive)

Inquiry: Would you mind telling me what GI50 value was observed for CC(C)c1cccc2sc(NC(=O)C(=O)CC(=O)c3ccc(F)cc3)nc12 ?
Reply text: > 100 µM (inactive)

Inquiry: Would you mind telling me what GI50 value was observed for Clc1ccc(C[P+](c2ccccc2)(c2ccccc2)c2ccccc2)cc1Cl ?
Reply text: 5.05 µM (inactive)

Inquiry: Would you mind telling me what GI50 value was observed for C[C@H]1C(=O)C2=C[C@H]1CCC(=O)[C@]1(C)CCCC(C)(C)[C@H]1C[C@H]2O ?
Reply text: 15.3 µM (inactive)

Inquiry: Would you mind telling me what GI50 value was observed for O=C1/C(=C/c2ccccc2S)N=C(c2ccccc2)N1c1nc2c(Cl)cc(Cl)cc2s1 ?
Reply text: 37.1 µM (inactive)

Inquiry: Would you mind telling me what GI50 value was observed for COc1ccc(NC(=S)N/N=C2\C(=O)Nc3ccccc32)cc1 ?
Reply text: 22 µM (inactive)

Inquiry: Would you mind telling me what GI50 value was observed for CC(/C=C/C=C/C=C/C=C/C=C/C(=O)C1=C(O)C(CCC(=O)O)N(C)C1=O)=C\C(C)C(OC1CC(O)C(O)C(C)O1)C(C)C (stereo not given) ?
Reply text: 2.49 µM (inactive)

Inquiry: Would you mind telling me what GI50 value was observed for O=C(NNS(=O)(=O)c1ccc(Br)cc1)c1ccc(Cl)cc1NC(=O)C12CC3CC(CC(C3)C1)C2 ?
Reply text: 12.5 µM (inactive)

Inquiry: Would you mind telling me what GI50 value was observed for CC1=CCC2CC1NC(=O)CCOCCC(=O)NC2(C)C (stereo not given) ?
Reply text: > 100 µM (inactive)
